These measurements were taken from patent US9320737B2.

target: human full-length MKNK1 (Homo sapiens (Human), UniProt Q9BUB5, T344D); assay: MKNK1 kinase assay (MKNK1 TR-FRET assay); conditions: GST-MKNK1 (T344D), 10 μM ATP, average or median values
Sequence (Q9BUB5 other isoform, or with tags, fused parts or gaps T344D): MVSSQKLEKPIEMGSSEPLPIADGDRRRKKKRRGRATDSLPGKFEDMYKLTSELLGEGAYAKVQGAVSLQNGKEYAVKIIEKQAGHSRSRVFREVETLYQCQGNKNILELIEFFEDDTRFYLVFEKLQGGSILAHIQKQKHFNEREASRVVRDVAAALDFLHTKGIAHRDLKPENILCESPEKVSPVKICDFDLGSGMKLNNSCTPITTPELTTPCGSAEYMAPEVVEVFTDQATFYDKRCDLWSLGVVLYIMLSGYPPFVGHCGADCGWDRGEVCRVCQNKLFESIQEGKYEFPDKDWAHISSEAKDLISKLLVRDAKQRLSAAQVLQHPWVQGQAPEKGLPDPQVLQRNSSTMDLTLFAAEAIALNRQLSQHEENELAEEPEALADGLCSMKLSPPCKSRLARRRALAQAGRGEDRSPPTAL
ASSAY_READOUT: IC50 (nM)

I. COc1nccc2oc(-c3cnc4ccc(OCCCS(C)(=N)=O)nn34)cc12 (stereo not shown)
II. COc1cccc2oc(-c3cnc4ccc(OCCCSC)nn34)cc12
III. COc1ccc2oc(-c3cnc4ccc(OCCCS(C)(=O)=O)nn34)cc2c1
Request: For the compounds shown above, give the order from largest IC50 to smallest. # output: labels, in the requested order
Result: II, I, III
(II: 21 nM, I: 9 nM, III: 5 nM)
